- assayed.target: Gal4S(b1-4)GlcNAc
- run.description: glycan array binding signal (z-score within array); higher = stronger binding
- test.settings: glycan notation: IUPAC condensed, linker removed
The sample as a whole holds a higher share of the strongest signals than the screen did.

binder: DC SIGN CRD (Homo sapiens), Q9NNX6 (protein) QPCPWEWTFFQGNCYFMSNSQRNWHDSITACKEVGAQLVVIKSAEEQNFLQLQSSRSNRFTWMGLSDLNQEGTWQWVDGSPLLPSFKQYWNRGEPNNVGEEDCAEFSGNGWNDDKCNLAKFWICKKSAWSHPQFEK
glycan array binding signal (z-score): -0.361
